Provenance of the data: PubChem BioAssay (EPA / NIEHS)

read-out: Vascular cell adhesion molecule 1 (VCAM1), VCAM1 (gene 7412); experiment: BSK_CASM3C_VCAM1: BioMAP Diversity Plus: CASM3C Assay for Vascular cell adhesion molecule 1 (VCAM1) Biomarker Activity (AID 2283055); details: primary human coronary artery smooth muscle cells; actives raise or lower the signal;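 also: VCAM-1 protein level quantified by ELISA on the cells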
Activity calls are given as the source filed them. The calls were made as follows: active = hit-call score of the fitted dose curve at least 0.9, where 1 is the maximum; inactive = score below 0.9.
Give your call using only these classes: y for active, n for inactive

Reference set (3 entries):
COMPOUND	ASSIGNED CATEGORY
CS(=O)(=O)c1ccc(C2=C(c3ccccc3)C(=O)OC2)cc1	n
CC1(C)C2=CCCC(C)(C)[C@]23CC[C@H]1C3	y
Oc1c(Cl)cc(Cl)c(Cl)c1Cc1c(O)c(Cl)cc(Cl)c1Cl	y

Hi, sorry to bother you, what did the test record for `CCCCCCCCCCCCCCCC(=O)OC/C=C(C)/C=C/C=C(C)/C=C/C1=C(C)CCCC1(C)C` ?
y

And for `CSCCC=O` ?
n

What do you get for C=CC(C)(O)CCC=C(C)C (configuration not stated) ?
n

Please answer likewise for `Clc1cc(Cl)c(-c2c(Cl)c(Cl)cc(Cl)c2Cl)cc1Cl`
n

Then `CN(c1nccc(=O)[nH]1)C1CCN(c2nc3ccccc3n2Cc2ccc(F)cc2)CC1` ?
n

Then this compound: C1=CC2C3C=CC(C3)C2C1 (configuration not stated)
n

Field entry: `CN(C)C(=S)SC(=S)N(C)C`
y

Now the compound `CCCCCC(C=O)=Cc1ccccc1`
y

Try `CC(=O)c1c(C)c([N+](=O)[O-])c(C(C)(C)C)c([N+](=O)[O-])c1C` next.
n

Proceed to `IC(I)I`
n

Record: `CS(=O)(=O)OCCCCOS(C)(=O)=O`
n

Now the same for CC(=O)C1(C)CC2=C(CCCC2(C)C)CC1C (configuration not stated)
y

Same for `CCN(CC)C(=O)N(CC)CC`
n

Same read-out for `CCCCN(CCCC)C(=O)N(CCCC)CCCC` ?
y

----------
experiment: BSK_BE3C_SRB: Viability Assessment in the BioMAP Diversity Plus: BE3C Assay (AID 2283028); conditions: primary human bronchial epithelial cells
The source made the active and inactive calls. How the source made its calls: active means hit-call score of the fitted dose curve at least 0.9, where 1 is the maximum; inactive means score below 0.9.
Mark one answer only. Choices: True (active), False (inactive)

In this assay, the call recorded for `CN(C)C(=S)SC(=S)N(C)C` was what?
False

Proceed to CCC(C)c1cc([N+](=O)[O-])cc([N+](=O)[O-])c1OC(=O)OC(C)C (configuration not stated)
True

Cool, now `c1ccc(Oc2ccccc2)cc1`
False

Okay, and `Clc1cc(Cl)c(-c2c(Cl)c(Cl)cc(Cl)c2Cl)cc1Cl` ?
False

Try this compound next: `C=C(C)[C@H]1CC=C(C)C(=O)C1`
False

Also `CS(=O)(=O)c1ccc(C2=C(c3ccccc3)C(=O)OC2)cc1` , if possible.
False

// query: `CC(C)(C)CC(C)(C)c1ccc(OCCOCC[N+](C)(C)Cc2ccccc2)cc1`
True

----------
read-out: Interleukin-8 (IL8), CXCL8 (gene 3576); test: BSK_LPS_IL8: BioMAP Diversity Plus: LPS Assay for Interleukin-8 (IL8) Biomarker Activity (AID 2283078); details: primary human HUVEC with PBMC; actives raise or lower the signal
Activity calls are given as the source filed them. The calls were made as follows: active = hit-call score of the fitted dose curve at least 0.9, where 1 is the maximum; inactive = score below 0.9.
Just give me one of these, please: 1 for active, 0 for inactive

COMPOUND	ASSIGNED CATEGORY
CCCCN(CCCC)C(=O)N(CCCC)CCCC	0
Oc1c(Cl)cc(Cl)c(Cl)c1Cc1c(O)c(Cl)cc(Cl)c1Cl	1
CCCCCC(C=O)=Cc1ccccc1	0
c1ccc(CCc2ccccc2)cc1	1
CC(=O)Nc1ccc(C(=O)CCl)cc1	1

Answer briefly: the call reported for CC(C=O)Cc1ccc(C(C)(C)C)cc1 (centres undefined) in this assay.
0

Similarly, `Cc1cc(CCC(=O)OCCOCCOCCOC(=O)CCc2cc(C)c(O)c(C(C)(C)C)c2)cc(C(C)(C)C)c1O` ?
0

Note, next up: `CCOC(=O)C(C#N)=C(c1ccccc1)c1ccccc1`
0

Now consider `CN(c1nccc(=O)[nH]1)C1CCN(c2nc3ccccc3n2Cc2ccc(F)cc2)CC1` and answer again.
0

----------
Target: Nuclear respiratory factor 1 (Homo sapiens) (UniProt Q16656)
Sequence (Q16656 whole entry, looked up): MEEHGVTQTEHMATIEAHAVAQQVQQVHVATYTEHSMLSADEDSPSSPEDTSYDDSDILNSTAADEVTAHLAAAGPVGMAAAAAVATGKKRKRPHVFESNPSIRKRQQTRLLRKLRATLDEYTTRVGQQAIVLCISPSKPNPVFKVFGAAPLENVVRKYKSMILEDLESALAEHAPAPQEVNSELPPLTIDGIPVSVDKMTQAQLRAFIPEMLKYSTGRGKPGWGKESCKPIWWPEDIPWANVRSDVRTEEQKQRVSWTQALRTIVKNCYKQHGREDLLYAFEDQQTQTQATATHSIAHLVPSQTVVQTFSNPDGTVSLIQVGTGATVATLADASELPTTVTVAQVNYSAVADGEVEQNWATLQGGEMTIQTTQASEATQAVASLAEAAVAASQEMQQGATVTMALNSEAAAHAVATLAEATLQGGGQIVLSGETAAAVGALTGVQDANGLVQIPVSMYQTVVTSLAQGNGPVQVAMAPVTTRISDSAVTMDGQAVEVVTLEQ
Test: ATG_NRF1_CIS: Attagene CIS-FACTORIAL HepG2 Assay for human Nuclear Respiratory Factor 1 (NRF1) Orphan Gene (AID 2282987)
Settings: HepG2 NRF1 cis-element reporter, Attagene multiplex; actives raise or lower the signal
Method: ATG_CIS is a cell-based, multiplexed-readout assay that uses HepG2, a human liver cell line, with measurements taken at 24 hours after chemical dosing in a 24-well plate.ATG_NRF1_CIS is one of 52 assay component(s) measured or calculated from the ATG_CIS assay. […] This assay endpoint, ATG_NRF1_CIS, was analyzed with bidirectional fitting relative to DMSO as the negative control and baseline of activity. […]
Activity calls are given as the source filed them. The calls were made as follows: active = hit-call score of the fitted dose curve at least 0.9, where 1 is the maximum; inactive = score below 0.9.
REPORTED ENDPOINT: outcome

COMPOUND	REPORTED ENDPOINT	RESULT
CC(C)C(OC(=O)c1ccccc1)C(C)(C)COC(=O)c1ccccc1 (stereo not drawn)	outcome	inactive
CC1(C)COCN1	outcome	inactive
C=C(C)C(=O)OCC(CC)(COC(=O)C(=C)C)COC(=O)C(=C)C	outcome	inactive

----------
read-out: CD40, CD40 (gene 958); assay: BSK_SAg_CD40: BioMAP Diversity Plus: SAg Assay for CD40 Biomarker Activity (AID 2283088); conditions: primary human HUVEC with PBMC; actives raise or lower the signal
The source made the active and inactive calls. The calls were made as follows: active = hit-call score of the fitted dose curve at least 0.9, where 1 is the maximum; inactive = score below 0.9.

COMPOUND	outcome
O=C1c2ccccc2C(=O)c2c(O)ccc(O)c21	inactive
IC(I)I	inactive
C=C(C)C(=O)OCCOCCOCCOC(=O)C(=C)C	inactive

----------
Assay: TOX21_p53_BLA_p4_viability: Viability Assessment in the Tox21 HCT-116 p53 Agonism Beta-lactamase Assay, Phase 4 (AID 2283597);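 also: hits lower the luminescence signal meaning cytotoxicity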
Description: TOX21_p53_BLA_p4 is a cell-based, single-readout assay that uses HCT116, a human intestinal cell line, […] in a 1536-well plate.TOX21_p53_BLA_p4_viability is an assay readout measuring cellular ATP content and detected with CellTiter-Glo Luciferase-coupled ATP quantitation.TOX21_p53_BLA_p4_viability used a type of viability reporter where loss-of-signal activity can be used to understand changes in the cell viability. […]
Inconclusive results are not listed. Activity calls are given as the source filed them. The calls were made as follows: active = hit-call score of the fitted dose curve at least 0.9, where 1 is the maximum; inconclusive = response in the unintended direction; inactive = score below 0.9.
Returns: one label drawn from active, inactive

Check out these entries, answers already filled in.
COMPOUND	ASSIGNED CATEGORY
Cc1ccc2c(c1)C(=O)OC2=O	inactive
CC(=O)C1(C)CC2=C(CCCC2(C)C)CC1C (stereo unspecified)	inactive
O=C1NC2NC(=O)NC2N1 (stereo unspecified)	inactive
N#Cc1cscn1	inactive
CCCC[P+](CCCC)(CCCC)CCCC	inactive
Cc1c(C2(c3cc(Br)c(O)c(Br)c3C)OS(=O)(=O)c3ccccc32)cc(Br)c(O)c1Br	active
Cc1ncc([N+](=O)[O-])n1CCO	inactive
C1CCCCC1	inactive

Name the outcome recorded for `COCCOC(=O)c1ccccc1C(=O)OCCOC` in the assay.
inactive

Can you check `Cc1cc(C)nc(NS(=O)(=O)c2ccc(N)cc2)n1` next?
inactive

Please give the result for `C=C(C#N)C(=O)OCC` too.
inactive

One more compound: `Cc1cc(=O)oc2cc(N(C)C)ccc12`
inactive

Field entry: `CN(C)C(=S)SC(=S)N(C)C`
inactive

What about `CC(C)c1ccccc1O` ?
inactive

Request: COC(=O)c1ccc(C)cc1C1=NC(C)(C(C)C)C(=O)N1 (stereo unspecified) (tested in a mixture with another compound)
inactive

Another: CC1CC(O)CC(C)(C)C1 (stereo unspecified)
inactive

Continue with `CC1(C)O[C@@H]2C[C@H]3[C@@H]4CCC5=CC(=O)C=C[C@]5(C)[C@@]4(F)[C@@H](O)C[C@]3(C)[C@]2(C(=O)CO)O1`
inactive

Same question for `OCCOCCN1CCN(C2=Nc3ccccc3Sc3ccccc32)CC1` please.
inactive

Then what about the compound `Cc1ncc[nH]1` ?
inactive

// repeat for CC(C)=CCCC(C)CCOC=O (stereo unspecified) and report
inactive

Item: NC1CCCCC1N (stereo unspecified)
inactive

----------
read-out: Matrix Metallopeptidase 1 (MMP1), MMP1 (gene 4312); assay: BSK_BE3C_MMP1: BioMAP Diversity Plus: BE3C Assay for Matrix Metallopeptidase 1 (MMP1) Biomarker Activity (AID 2283024); settings: primary human bronchial epithelial cells; actives raise or lower the signal
The source made the active and inactive calls. The calls were made as follows: active = hit-call score of the fitted dose curve at least 0.9, where 1 is the maximum; inactive = score below 0.9.
Please state which outcome applies, choosing from t (active), f (inactive)

Use the examples below as a reference point.
MOLECULE	ASSIGNED CATEGORY
CCCCCC(C=O)=Cc1ccccc1	t
IC(I)I	f
CC(CN=Cc1ccccc1O)N=Cc1ccccc1O (centres undefined)	f
C[C@@H]1CCN(C(=O)[C@H](CCCN=C(N)N)NS(=O)(=O)c2cccc3c2NC[C@H](C)C3)[C@@H](C(=O)O)C1	t
O=CN1CCOCC1	f

Recorded test call requested for `CC1(C)C2=CCCC(C)(C)[C@]23CC[C@H]1C3`
f

Then `COc1ccc(CCN2CCC(Nc3nc4ccccc4n3Cc3ccc(F)cc3)CC2)cc1` ?
f

Let us now turn to C1=CC2C3C=CC(C3)C2C1 (centres undefined)
f

Here is the next molecule: `CC(C)(C)CC(C)(C)c1ccc(OCCOCC[N+](C)(C)Cc2ccccc2)cc1`
t

Note, next up: `c1ccc2cc(Nc3ccc(Nc4ccc5ccccc5c4)cc3)ccc2c1`
f

Further, for `C=C(C)C(=O)OCCOCCOCCOC(=O)C(=C)C` ?
f

Now the same for `Cc1cc(CCC(=O)OCCOCCOCCOC(=O)CCc2cc(C)c(O)c(C(C)(C)C)c2)cc(C(C)(C)C)c1O`
f

Moving on to the next molecule: `O=C1OC2(c3ccccc31)c1ccc(O)c(Br)c1Oc1c2ccc(O)c1Br`
f

Thanks! And `COc1cc(Cl)c(OC)cc1N` ?
f

Another molecule to look at: `CC1(C)CCC[C@]2(C)[C@H]3CCO[C@]3(C)CC[C@@H]12`
f

Moving on to the next molecule: `CC(C)(N=C=O)c1cccc(C(C)(C)N=C=O)c1`
f

Another molecule to check: `CSCCC=O`
f

Now consider `C=C(C)C(=O)OCC(CC)(COC(=O)C(=C)C)COC(=O)C(=C)C` .
f

Also need `CC=Cc1ccc(OCC)c(O)c1` , thanks.
f

Note, next up: `CS(=O)(=O)OCCCCOS(C)(=O)=O`
f
